Hello, the source for this data is patent US20070129313A1, in case you need it.

Target: human somatostatin receptor subtype SSTR3 (Homo sapiens)
Sequence (P32745 whole entry): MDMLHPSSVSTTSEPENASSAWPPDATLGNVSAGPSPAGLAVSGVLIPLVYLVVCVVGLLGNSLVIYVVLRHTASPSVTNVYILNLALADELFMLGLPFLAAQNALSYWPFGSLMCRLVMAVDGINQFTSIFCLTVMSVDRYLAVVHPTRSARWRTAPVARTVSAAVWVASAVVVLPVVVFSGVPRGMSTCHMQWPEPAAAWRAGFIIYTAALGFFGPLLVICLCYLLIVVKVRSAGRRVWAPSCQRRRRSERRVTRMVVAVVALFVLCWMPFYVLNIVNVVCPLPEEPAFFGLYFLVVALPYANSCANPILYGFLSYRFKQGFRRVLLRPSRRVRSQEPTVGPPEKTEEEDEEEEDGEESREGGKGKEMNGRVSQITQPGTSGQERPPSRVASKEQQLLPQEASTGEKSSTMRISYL
property.measured: Ki

The following compounds have reported results that may help.
# input.smiles, Ki
data = [
    ("Cc1ccc(S(=O)(=O)N[C@@H](CCN)C(=O)N[C@H](C(N)=O)C(c2ccccc2)c2ccccc2)c2ccccc12", "> 5 µM"),
    ("Cc1ccc(S(=O)(=O)N[C@@H](CCCNC(=N)N)C(=O)N[C@@H](Cc2ccccc2)C(N)=O)c2ccccc12", "> 10 µM"),
    ("Cc1ccc(S(=O)(=O)N[C@@H](CCCNC(=N)N)C(=O)N[C@H](C(N)=O)C(c2ccccc2)c2ccccc2)c2ccccc12", "> 5 µM"),
]

Requested read-out: Ki. Entry: `Cc1ccc(S(=O)(=O)N[C@@H](CCCN)C(=O)N[C@@H](Cc2ccccc2)C(N)=O)c2ccccc12` > 1 µM

====

These records show pKi for UniProtKB P30874.
Sequence (P30874 whole entry): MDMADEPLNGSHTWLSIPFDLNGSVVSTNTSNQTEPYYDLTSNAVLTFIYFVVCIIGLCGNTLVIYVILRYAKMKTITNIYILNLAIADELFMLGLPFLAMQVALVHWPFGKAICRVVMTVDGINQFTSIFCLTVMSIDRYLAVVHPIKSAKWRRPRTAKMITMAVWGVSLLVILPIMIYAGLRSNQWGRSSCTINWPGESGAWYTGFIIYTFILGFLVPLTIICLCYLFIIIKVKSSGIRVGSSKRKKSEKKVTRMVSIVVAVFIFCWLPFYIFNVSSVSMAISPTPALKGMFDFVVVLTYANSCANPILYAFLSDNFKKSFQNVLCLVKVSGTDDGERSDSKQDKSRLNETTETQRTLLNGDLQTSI
pKi: −log10 of the molar value.

The following molecules have reported results that may help.
# input.smiles, pKi
measured = [
    ("Cc1ccc(S(=O)(=O)N[C@@H](CCCN)C(=O)N[C@@H](Cc2ccccc2)C(N)=O)c2ccccc12", "< 6.00"),
    ("Cc1ccc(S(=O)(=O)N[C@@H](CCCNC(=N)N)C(=O)N[C@H](C(N)=O)C(c2ccccc2)c2ccccc2)c2ccccc12", "< 5.00"),
]

# next molecule below
Requested read-out: pKi. Entry: `Cc1ccc(S(=O)(=O)N[C@@H](CCN)C(=O)N[C@H](C(N)=O)C(c2ccccc2)c2ccccc2)c2ccccc12` < 5.00
